Origin of the recorded values: ChEMBL document CHEMBL1614632

ASSAY: clinical
CONDITION_SUMMARY: human, in vivo, iv
READOUT_LABEL: MRT (h)
# number only, unit h dropped from output

Examples with answers:
MOLECULE	MRT, h
CN[C@H]1C(=O)N[C@@H]2Cc3ccc(cc3)Oc3cc4cc(c3O[C@@H]3O[C@H](C(=O)O)[C@@H](O)[C@H](O)[C@H]3NC(=O)CCCCCCCCC(C)C)Oc3ccc(cc3Cl)[C@@H](O)[C@@H]3NC(=O)[C@H](NC(=O)[C@@H]4NC(=O)[C@@H](NC2=O)c2cc(cc(O)c2Cl)Oc2cc1ccc2O)c1ccc(O)c(c1)-c1c(O[C@H]2O[C@H](CO)[C@@H](O)[C@H](O)[C@@H]2O)cc(O)cc1[C@@H](C(=O)NCCCN(C)C)NC3=O [DALBAVANCIN]	230
NCCCNc1ccc2c(CNCCO)nn3c4c(O)ccc(O)c4c(=O)c1c23	11
C=CCN1CCCC1CNC(=O)c1cc2[nH]nnc2cc1OC (stereo not drawn) [ALIZAPRIDE]	4
Cc1cccc([C@H](C)c2cnc[nH]2)c1C [DEXMEDETOMIDINE]	2.5
COc1ccccc1N1CCN(CCCNc2cc(=O)n(C)c(=O)n2C)CC1	4

Continue with the next molecule.
Param item = CN(C)[C@@H]1C(O)=C(C(N)=O)C(=O)[C@@]2(O)C(O)=C3C(=O)c4c(O)cccc4[C@@](C)(O)[C@H]3[C@H](O)[C@@H]12 [OXYTETRACYCLINE] ; retrieve measured MRT.
12

###

ASSAY: clinical
CONDITION_SUMMARY: human, in vivo, iv
Recorded fraction unbound, one value per entry.
Give only the figure.

Examples with answers:
COMPOUND	fraction unbound
COc1ccccc1Oc1c(NS(=O)(=O)c2ccc(C(C)C)cn2)nc(-c2ccnc(-c3nnn[nH]3)c2)nc1OCCO	0.0085
CC1(C)O[C@@H]2C[C@H]3[C@@H]4CCC5=CC(=O)C=C[C@]5(C)[C@@]4(F)[C@@H](O)C[C@]3(C)[C@]2(C(=O)CO)O1 [TRIAMCINOLONE ACETONIDE]	0.2

Param item = CC1(C)S[C@@H]2[C@H](NC(=O)C(c3ccccc3)S(=O)(=O)O)C(=O)N2[C@H]1C(=O)O (some centres undefined) ; retrieve measured fraction unbound.
0.5

Consider next the compound C[C@H]1O[C@@H](O[C@H]2[C@@H](O)C[C@H](O[C@H]3[C@@H](O)C[C@H](O[C@H]4CC[C@@]5(C)[C@H](CC[C@@H]6[C@@H]5CC[C@]5(C)[C@@H](C7=CC(=O)OC7)CC[C@]65O)C4)O[C@@H]3C)O[C@@H]2C)C[C@H](O)[C@@H]1O in the same way.
0.066

Consider next the compound O=P(O)(O)OC(Cn1cncn1)(Cn1cncn1)c1ccc(F)cc1F in the same way.
0.042

Consider next the compound CC1(C)S[C@@H]2[C@H](NC(=O)[C@H](C(=O)O)c3ccsc3)C(=O)N2[C@H]1C(=O)O in the same way.
0.55

Consider next the compound CCOC(=O)C1(c2ccccc2)CCC=CC1N(C)C (centres undefined) in the same way.
0.21

Consider next the compound COc1cc([C@@H]2c3cc4c(cc3[C@@H](O[C@@H]3O[C@@H]5CO[C@@H](c6cccs6)O[C@H]5[C@H](O)[C@H]3O)[C@H]3COC(=O)[C@H]23)OCO4)cc(OC)c1O [TENIPOSIDE] in the same way.
0.0044

###

ASSAY: clinical
CONDITION_SUMMARY: human, in vivo, iv, t1/2
READOUT_LABEL: half-life
Returns: string containing the numeric result and its unit.

> print(dat)
                                   compound  recorded.result
1                CN(C)CCN(Cc1cccs1)c1ccccn1            1.6 h
2                 C[C@@H]1O[C@@H]1P(=O)(O)O            1.9 h
3  CC(C)NCC(O)COc1cccc2ccccc12 (stereo unspecified)            3.4 h
4  O=C(O)C1N=C(c2ccccc2)c2cc(Cl)ccc2NC1=O (stereo unspecified) [CLORAZEPIC ACID]            2.4 h
5  CCCCNC(=O)NS(=O)(=O)c1ccc(C)cc1 [TOLBUTAMIDE]              7 h

Continue with the next compound.
Param item = CC(=O)N(CC(O)CO)c1c(I)c(C(=O)NCC(O)CO)c(I)c(C(=O)NCC(O)CO)c1I (stereo unspecified) [IOHEXOL] ; retrieve measured half-life.
1.5 h

###

ASSAY: clinical
CONDITION_SUMMARY: human, in vivo, iv, CL
Recorded clearance, one value per entry.
# number only, unit mL/min/kg dropped from output

Examples with answers:
COMPOUND	UNITS	clearance
C[C@H](Cn1cnc2c(N)ncnc21)OCP(=O)(O)O [TENOFOVIR ANHYDROUS]	mL/min/kg	3.1
CN[C@@H]1[C@@H](O)[C@@H](O[C@@H]2[C@@H](O)[C@H](O[C@H]3OC(CN)=CC[C@H]3N)[C@@H](N)C[C@H]2N)OC[C@]1(C)O [SISOMICIN]	mL/min/kg	1

Continue with the next compound.
Param item = C/C=C/C[C@@H](C)C(=O)[C@H]1C(=O)N[C@@H](C(C)C)C(=O)N(C)CC(=O)N(C)[C@@H](CC(C)C)C(=O)N[C@@H](C(C)C)C(=O)N(C)[C@@H](CC(C)C)C(=O)N[C@@H](C)C(=O)N[C@H](C)C(=O)N(C)[C@@H](CC(C)C)C(=O)N(C)[C@@H](CC(C)C)C(=O)N(C)[C@@H](C(C)C)C(=O)N1C [VALSPODAR] ; retrieve measured clearance.
2.6

###

ASSAY: clinical
CONDITION_SUMMARY: human, in vivo, iv, t1/2
Square brackets hold non-standard residues; d marks the D form. Peptide text beside a SMILES is read from it. dPhe(4-Cl) = N[C@H](Cc1ccc(Cl)cc1)C(=O)O; d2Nal = N[C@H](Cc1ccc2ccccc2c1)C(=O)O; dCit = NC(=O)NCCC[C@@H](N)C(=O)O; d3Pal = N[C@H](Cc1cccnc1)C(=O)O
Rule: half-life under 2 h gives Not met, otherwise Met.

Field: example entries. Status: answers known.
MOLECULE	GROUP
CNC(=C[N+](=O)[O-])NCCSCc1ccc(CN(C)C)o1	Met
CN1CCN(C2=Nc3cc(Cl)ccc3Nc3ccccc32)CC1	Met
C[C@@H]1CC(=O)NN=C1c1ccc(NN=C(C#N)C#N)cc1	Not met
CCN1C[C@H]2CN(C)C[C@H](C1)C2OC(=O)c1ccc(Cl)cc1 (stereo partly specified)	Met
CCOc1ccccc1OCC1CNCCO1 (stereo unspecified)	Met

Check if half-life >= 2 h (inclusive). Item: CC(=O)N[C@H](Cc1ccc2ccccc2c1)C(=O)N[C@H](Cc1ccc(Cl)cc1)C(=O)N[C@H](Cc1cccnc1)C(=O)N[C@@H](CO)C(=O)N[C@@H](Cc1ccc(O)cc1)C(=O)N[C@H](CCCNC(N)=O)C(=O)N[C@@H](CC(C)C)C(=O)N[C@@H](CCCNC(=N)N)C(=O)N1CCC[C@H]1C(=O)N[C@H](C)C(N)=O [CETRORELIX] (Ac-[d2Nal][dPhe(4-Cl)][d3Pal]SY[dCit]LRP[dA]-NH2)
Met

Consider next the molecule NS(=O)(=O)c1cc(C2(O)NC(=O)c3ccccc32)ccc1Cl (stereo unspecified) in the same way.
Met

Consider next the molecule C[C@@H](O)[C@H]1C(=O)N2C(C(=O)[O-])=C(SC3Cn4cnc[n+]4C3)[C@H](C)[C@H]12 (stereo partly specified) in the same way.
Not met

Consider next the molecule NC[C@H]1O[C@H](O[C@H]2[C@H](O)[C@@H](O[C@H]3O[C@H](CO)[C@@H](O)[C@H](N)[C@H]3O)[C@H](N)C[C@@H]2N)[C@H](O)[C@@H](O)[C@@H]1O in the same way.
Met

Consider next the molecule CCCN1CCCC[C@H]1C(=O)Nc1c(C)cccc1C in the same way.
Met

Consider next the molecule C[C@H](Cn1cnc2c(N)ncnc21)OCP(=O)(O)O [TENOFOVIR ANHYDROUS] in the same way.
Met

Consider next the molecule NC[C@H]1CC[C@H](C(=O)O)CC1 in the same way.
Met

Consider next the molecule O=C(CCCN1CCC(O)(c2ccc(Cl)cc2)CC1)c1ccc(F)cc1 in the same way.
Met

###

ASSAY: clinical
CONDITION_SUMMARY: human, in vivo, iv
READOUT_LABEL: MRT (h)
# number only, unit h dropped from output

Examples with answers:
> print(dat)
                                   molecule  units  recorded.result
1  COc1cc2c(c(OC)c1OC)-c1ccc(OC)c(=O)cc1[C@@H](NC(C)=O)CC2 [COLCHICINE]      h               49
2  C[C@]12CCC(=O)C=C1CC[C@@H]1[C@@H]2[C@@H](O)C[C@@]2(C)[C@H]1CC[C@]2(O)C(=O)CO [HYDROCORTISONE]      h              1.9
3  C[C@H](N[C@@H](CCc1ccccc1)C(=O)O)C(=O)N1Cc2ccccc2C[C@H]1C(=O)O      h              2.3

Param item = CC(C)NCC(O)COc1cccc2[nH]ccc12 (stereo not drawn) [PINDOLOL] ; retrieve measured MRT.
2.6

Consider next the molecule CC(C)N(CCC(C(N)=O)(c1ccccc1)c1ccccn1)C(C)C (stereo not drawn) [DISOPYRAMIDE] in the same way.
9.6

Consider next the molecule CCCNC(=O)NS(=O)(=O)c1ccc(Cl)cc1 [CHLORPROPAMIDE] in the same way.
70

Consider next the molecule CC1(C)S[C@@H]2[C@H](NC(=O)[C@H](NC(=O)N3CCN(S(C)(=O)=O)C3=O)c3ccccc3)C(=O)N2[C@H]1C(=O)O [MEZLOCILLIN] in the same way.
0.71

Consider next the molecule COc1cc2c(cc1OC)CN(c1cc(N)c3cc(OC)c(OC)cc3n1)CC2 [ABANOQUIL] in the same way.
7.6
